FYI, the data here is from patent US8912329B2.

Biological target: UniProt Q7TVI1
Sequence (Q7TVI1 whole entry, looked up): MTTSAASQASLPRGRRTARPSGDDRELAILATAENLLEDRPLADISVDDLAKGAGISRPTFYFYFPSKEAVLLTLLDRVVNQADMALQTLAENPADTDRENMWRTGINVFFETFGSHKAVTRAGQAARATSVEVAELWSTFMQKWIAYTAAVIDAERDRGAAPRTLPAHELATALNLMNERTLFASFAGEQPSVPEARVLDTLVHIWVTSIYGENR
Experiment: cell-based
Set-up: species or system M. bovis
Conditions: 48 h, read-out: % EthR activity (w/o = 100%); ± std. dev. of the mean (n = 3)
assay.readout: remaining activity at 30 µM

- compound: "O=C(CCc1ccccc1)N1CC(Cc2ccccc2)C1"
  assay.readout: "remaining activity at 30 µM"
  result: "19.5%"
- compound: "O=C(CCc1ccccc1)N1CCC1c1ccccc1 (stereo not drawn)"
  assay.readout: "remaining activity at 30 µM"
  result: "59.4%"
- compound: "O=C(CCCc1ccccc1)N1CC(Cc2ccccc2)C1"
  assay.readout: "remaining activity at 30 µM"
  result: "26.3%"
